Reported log10 MIC values follow for various compounds
tested on: B. subtilis ATCC 23857; experiment: Minimal inhibitory concentration, microbroth dilution; format: cell-based; details: Bacillus subtilis, ATCC23857, read-out: Minimal Inhibitory Concentration B. subtilis ATCC 23857
*1 amine or outer side, *2 acyl side, *3 side chain or, on linkers, in order; H or OH if unused. Where a SMILES comes first, the peptide text is derived from it. Bridges are numbered along the chain shown (N, C = ends). [ ]: non-standard residue; d: D form. The star is where a group is joined. Phe(3,5-F2) = N[C@@H](Cc1cc(F)cc(F)c1)C(=O)O; NHPh(4-CF3) = FC(F)(F)c1ccc(N*)cc1; aThr = C[C@H](O)[C@H](N)C(=O)O; Pip = O=C(O)[C@@H]1CCCCN1; CO = O=C([*:1])[*:2]
Hello, just confirming the data are log10 of MIC with units of µM.

Fill in the blank: the reported log10 MIC of Cc1ccc(NC(=O)N[C@@H](Cc2cc(F)cc(F)c2)C(=O)N[C@H]2COC(=O)C3C[C@H](C)CN3C(=O)[C@H](C)NC(=O)C3CCCCN3C(=O)C3CCCN3C2=O)cc1C (stereo partly drawn) [Compound 48] is ____. -0.70

Further cases:
Fill in the blank: the reported log10 MIC of C[C@@H]1C[C@H]2C(=O)OC[C@H](NC(=O)[C@H](Cc3ccccc3)NC(=O)Nc3ccccc3Cl)C(=O)N3CCC[C@H]3C(=O)N3CCCC[C@H]3C(=O)N[C@@H](C)C(=O)N2C1 [Compound 7] is ____. 0.80

Fill in the blank: the reported log10 MIC of C[C@@H]1C[C@H]2C(=O)OC[C@H](NC(=O)[C@H](Cc3ccccc3)NC(=O)Nc3ccc4c(c3)CCN4C)C(=O)N3CCC[C@H]3C(=O)N3CCCC[C@H]3C(=O)N[C@@H](C)C(=O)N2C1 [Compound 11] is ____. 0.10

Fill in the blank: the reported log10 MIC of C[C@@H]1NC(=O)[C@@H]2CCCCN2C(=O)[C@@H]2CCCN2C(=O)[C@@H](NC(=O)[C@H](Cc2cc(F)cc(F)c2)NC(=O)Nc2ccc(C(F)(F)F)cc2)[C@H](C)OC(=O)[C@@H]2CCCN2C1=O [Compound 16] ({NHPh(4-CF3)-CO}-[Phe(3,5-F2)][aThr]P[Pip]AP; ester 2-C) is ____. -0.40

Fill in the blank: the reported log10 MIC of Cc1ccc(NC(=O)N[C@@H](Cc2cc(F)cc(F)c2)C(=O)N[C@H]2COC(=O)C3CC(C)(C)CN3C(=O)[C@H](C)NC(=O)C3CCCCN3C(=O)C3CCCN3C2=O)cc1 (stereo partly drawn) [Compound 49] is ____. -0.40

Fill in the blank: the reported log10 MIC of C[C@@H]1C[C@H]2C(=O)OC[C@H](NC(=O)[C@H](Cc3ccccc3)NC(=O)Nc3ccc4ccn(C)c4c3)C(=O)N3CCC[C@H]3C(=O)N3CCCC[C@H]3C(=O)N[C@@H](C)C(=O)N2C1 [Compound 12] is ____. 0.40

* * *

Reported IC50 at 72 h values follow for various compounds
assay: Cytotoxicity assay, CellTiter-Glo cell viability; assay type: cell-based; details: African green monkey; Vero cells, 72 hours; read-out: Cytotoxicity IC50
*1 amine or outer side, *2 acyl side, *3 side chain or, on linkers, in order; H or OH if unused. Where a SMILES comes first, the peptide text is derived from it. Bridges are numbered along the chain shown (N, C = ends). [ ]: non-standard residue; d: D form. The star is where a group is joined. Phe(3,5-F2) = N[C@@H](Cc1cc(F)cc(F)c1)C(=O)O; NHPh(4-CF3) = FC(F)(F)c1ccc(N*)cc1; aThr = C[C@H](O)[C@H](N)C(=O)O; Pip = O=C(O)[C@@H]1CCCCN1; CO = O=C([*:1])[*:2]
Write down the numeric answer in µM and omit the unit.

Below are worked cases with known answers.
Fill in the blank: the reported IC50 at 72 h of `C[C@@H]1C[C@H]2C(=O)OC[C@H](NC(=O)[C@H](Cc3ccccc3)NC(=O)Nc3ccc(N(C)C)cc3)C(=O)N3CCC[C@H]3C(=O)N3CCCC[C@H]3C(=O)N[C@@H](C)C(=O)N2C1` is ____. 91.3

Fill in the blank: the reported IC50 at 72 h of Cc1ccc(NC(=O)N[C@@H](Cc2cc(F)cc(F)c2)C(=O)N[C@@H]2C(=O)N3CCCC3C(=O)N3CCCCC3C(=O)N[C@@H](C)C(=O)N3C[C@H](C)CC3C(=O)O[C@H]2C)cc1 (stereo partly shown) is ____. 40

# ---- query compound ----
Fill in the blank: the reported IC50 at 72 h of C[C@@H]1NC(=O)[C@@H]2CCCCN2C(=O)[C@@H]2CCCN2C(=O)[C@@H](NC(=O)[C@H](Cc2cc(F)cc(F)c2)NC(=O)Nc2ccc(C(F)(F)F)cc2)[C@H](C)OC(=O)[C@@H]2CCCN2C1=O [Compound 16] ({NHPh(4-CF3)-CO}-[Phe(3,5-F2)][aThr]P[Pip]AP; ester 2-C) is ____. 74.3

* * *

system: S. pneumoniae R6; test: Minimal inhibitory concentration, microbroth dilution; format: cell-based; details: Streptococcus pneumoniae, R6, read-out: Minimal Inhibitory Concentration S. pneumoniae R6
Test Readout: MIC (µM)
Write down the numeric answer in µM and omit the unit.

Below are worked cases with known answers.
Fill in the blank: the reported MIC of Cc1ccc(NC(=O)N[C@@H](Cc2cc(F)cc(F)c2)C(=O)N[C@@H]2C(=O)N3CCCC3C(=O)N(C)[C@@H](C)C(=O)N[C@@H](C)C(=O)N3CCCC3C(=O)O[C@H]2C)cc1 (stereo partly drawn) [Compound 25] is ____. 0.254

Fill in the blank: the reported MIC of Cc1ccc(NC(=O)N[C@@H](Cc2cc(F)cc(F)c2)C(=O)N[C@H]2COC(=O)C3C[C@@H](F)CN3C(=O)[C@H](C)NC(=O)C3CCCCN3C(=O)C3CCCN3C2=O)cc1 (stereo partly drawn) [Compound 51] is ____. 6.3

Further cases:
Fill in the blank: the reported MIC of Cc1ccc(NC(=O)N[C@@H](Cc2cc(F)cc(F)c2)C(=O)N[C@H]2COC(=O)C3C[C@H](C)CN3C(=O)[C@H](C)NC(=O)C3CCCCN3C(=O)C3CCCN3C2=O)cc1C (stereo partly drawn) [Compound 48] is ____. 0.8

* * *

target: S. aureus ClpP (Sa-ClpP) (Staphylococcus aureus); construct: made in house; host or cells: E. coli BL21 (DE3); assay: ClpP activation, casein-BODIPY digestion assay (first described method); format: biochemical; conditions: first described ClpP activation assay (**); 10 μM saClpP, 25 μg/ml BODIPY FL casein, 37° C.; read-out: ClpP Activation EC50
Sequence (Q2G036 whole entry): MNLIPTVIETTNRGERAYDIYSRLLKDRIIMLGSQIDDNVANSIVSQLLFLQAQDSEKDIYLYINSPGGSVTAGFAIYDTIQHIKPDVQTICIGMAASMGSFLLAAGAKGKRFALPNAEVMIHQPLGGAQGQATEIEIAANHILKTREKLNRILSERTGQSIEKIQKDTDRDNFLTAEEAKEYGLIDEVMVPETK
Reported pEC50 values follow for various compounds
Conceptually, pEC50 converts a concentration in mol/L into minus its log10.

Fill in the blank: the reported pEC50 of Cc1ccc(NC(=O)N[C@@H](Cc2cc(F)cc(F)c2)C(=O)N[C@@H]2C(=O)N3CCC[C@H]3C(=O)N3CCCC[C@H]3C(=O)N[C@@H](C)C(=O)N3C[C@@H](C)C[C@H]3C(=O)O[C@H]2C)cc1 [Compound 18] is ____. 5.15

Fill in the blank: the reported pEC50 of C[C@@H]1C[C@H]2C(=O)OC[C@H](NC(=O)[C@H](Cc3ccccc3)NC(=O)Nc3ccc(OC(F)(F)F)cc3)C(=O)N3CCC[C@H]3C(=O)N3CCCC[C@H]3C(=O)N[C@@H](C)C(=O)N2C1 [Compound 2] is ____. 5.59

# ---- query compound ----
Fill in the blank: the reported pEC50 of COc1cccc(NC(=O)N[C@@H](Cc2ccccc2)C(=O)N[C@H]2COC(=O)[C@@H]3C[C@@H](C)CN3C(=O)[C@H](C)NC(=O)[C@@H]3CCCCN3C(=O)[C@@H]3CCCN3C2=O)c1 [Compound 8] is ____. 5.52

* * *

tested on: B. subtilis ATCC 23857; assay: Minimal inhibitory concentration, microbroth dilution; format: cell-based; settings: Bacillus subtilis, ATCC23857; read-out: Minimal Inhibitory Concentration B. subtilis ATCC 23857
Reported MIC values follow for various molecules
Write down the numeric answer in µM and omit the unit.

Give recorded MIC with B. subtilis ATCC 23857 for the following molecule: C[C@@H]1CC2C(=O)O[C@@H](C)[C@H](NC(=O)[C@H](Cc3cc(F)cc(F)c3)NC(=O)Nc3ccc(OC(F)(F)F)cc3)C(=O)N3CCCC3C(=O)N(C)[C@@H]([C@H](C)O)C(=O)N[C@@H](C)C(=O)N2C1 (stereo partly shown) [Compound 41] 0.01

Give recorded MIC with B. subtilis ATCC 23857 for the following molecule: CCc1ccc(NC(=O)N[C@@H](Cc2cc(F)cc(F)c2)C(=O)N[C@@H]2C(=O)N3CCCC3C(=O)N(C)[C@@H]([C@H](C)O)C(=O)N[C@@H](C)C(=O)N3C[C@@H](C)CC3C(=O)O[C@H]2C)cc1 (stereo partly shown) [Compound 37] 0.05

Give recorded MIC with B. subtilis ATCC 23857 for the following molecule: CCc1ccc(NC(=O)N[C@@H](Cc2cc(F)cc(F)c2)C(=O)N[C@@H]2C(=O)N3CCCC3C(=O)N(C)[C@@H]([C@H](C)O)C(=O)N[C@@H](C)C(=O)N3C[C@H](C)CC3C(=O)O[C@H]2C)cc1 (stereo partly shown) [Compound 42] 0.01

Further cases:
Give recorded MIC with B. subtilis ATCC 23857 for the following molecule: C[C@H]1CC2C(=O)O[C@@H](C)[C@H](NC(=O)[C@H](Cc3cc(F)cc(F)c3)NC(=O)Nc3ccc(OC(F)(F)F)cc3)C(=O)N3CCCC3C(=O)N(C)[C@@H]([C@H](C)O)C(=O)N[C@@H](C)C(=O)N2C1 (stereo partly shown) [Compound 36] 0.1
